target: SARS-CoV-2 RBD WT (for SPR binding assays) (SARS-CoV-2, Wuhan-Hu-1 (WT), UniProt P0DTC2); assay: SPR
pKd: −log10 of the molar value.
Measured pKd, listed per entry.
READOUT NAME: pKd

INSERT INTO measurements (binder, observed_measurement) VALUES
  ('S304 Fab (Fab, V domains shown) VH: EVQLVESGGGLVQPGGSLRLSCAASGFTFSSYDMHWVRQTTGKGLEWVSTIGTAGDTYYPDSVKGRFTISREDAKNSLYLQMNSLRAGDTAVYYCARGDSSGYYYYFDYWGQGTLLTVSS VL: DIQMTQSPSSLSAAVGDRVTITCRASQSIGSYLNWYQQKPGKAPKLLIYAASSLQSGVPSRFSGSGSGTDFTLTISSLQPEDFAIYYCQQSYVSPTYTFGPGTKVDIK', 9.00),
  ('S2X35 IgG1 (antibody, V domains shown) VH: QVQLVQSGAEVKKPGASVKVSCKASGYTFTNYGISWVRQAPGQGLEWMGWISAYKGNTNYAQKLQGRVTMTTDTSTSTAYMELRSLRSDDTAVYYCARPDYQVLGYDFWIGYYGMDVWGQGTTVIVSS VL: QSVLTQPPSVSGAPGQRVTISCTGSSSNIGAGYDVHWYQQLPGTAPKLLIYGNTNRPSGVPDRFSGSKSGTSASLAITGLQAEDEADYYCQSYDSSLSGSEVVFGGGTKLTVL', 10.22);

Where do these numbers come from? They come from paper PMC9282883.
